Tested on: MCF7
Assay remarks: Concentration which produces 50% inhibition of growth of human breast tumor MCF-7 cell line
Assay type: functional, cell-based
Measurement kind: IC50 (nM)

Known results for compounds:
[
  {
    "Substance smiles": "COc1ccc(-c2oc(O)nc2-c2cc(OC)c(OC)c(OC)c2)cc1O",
    "Value units": "nM",
    "Reported value": 5.7
  },
  {
    "Substance smiles": "COc1ccc(-c2coc(=O)n2-c2cc(OC)c(OC)c(OC)c2)cc1O",
    "Value units": "nM",
    "Reported value": 2.9
  },
  {
    "Substance smiles": "COc1cc(-n2c(-c3ccc4c(c3)OCO4)coc2=O)cc(OC)c1OC",
    "Value units": "nM",
    "Reported value": 39.7
  },
  {
    "Substance smiles": "COc1ccc(-c2oc(O)nc2-c2cc(OC)c(OC)c(OC)c2)cc1N",
    "Value units": "nM",
    "Reported value": 4.9
  },
  {
    "Substance smiles": "COc1ccc(-c2coc(=O)n2-c2cc(OC)c(OC)c(OC)c2)cc1",
    "Value units": "nM",
    "Reported value": 10.5
  },
  {
    "Substance smiles": "COc1ccc(/C=C\\c2cc(OC)c(OC)c(OC)c2)cc1O",
    "Value units": "nM",
    "Reported value": 2.7
  }
]

[P] COc1ccc(-c2oc(O)nc2-c2cc(OC)c(OC)c(OC)c2)cc1
[Q] COc1ccc(-c2coc(=O)n2-c2cc(OC)c(OC)c(OC)c2)cc1N
[R] COc1cc(-c2nc(O)oc2-c2ccc3c(c2)OCO3)cc(OC)c1OC
Order the 3 compounds from highest to lowest IC50. Sort and list the labels as requested. R, P, Q

[A] COc1cc(-c2nc(O)oc2-c2ccc3ccccc3c2)cc(OC)c1OC
[B] COc1cc(-n2c(-c3ccc4ccccc4c3)coc2=O)cc(OC)c1OC
Which of the two gives a bigger number for IC50: A or B ? Give the chosen item's label as your response. A
